- Test system: Indochina W2 chloroquine-resistant Plasmodium falciparum strain
- Assay Procedure: Malaria SYBR Green I-based in vitro drug susceptibility assay, W2 strain
- Format: cell-based
- Test Settings: W2, read-out: IC50 (W2)
pIC50: −log10 of the molar value.
Result Type: pIC50

INSERT INTO measurements (molecule, measured_on, result_type, reported_measurement) VALUES
  ('CCN(CC)CCCC(C)Nc1ccnc2cc(Cl)ccc12 (stereo not shown)', 'Indochina W2 chloroquine-resistant Plasmodium falciparum strain', 'pIC50', 6.28);

Data origin: paper PMC6270246
